The values you see were collected from patent US7273846B2.

Target: MCH-2R (Homo sapiens, UniProt Q969V1)
Sequence (Q969V1 whole entry): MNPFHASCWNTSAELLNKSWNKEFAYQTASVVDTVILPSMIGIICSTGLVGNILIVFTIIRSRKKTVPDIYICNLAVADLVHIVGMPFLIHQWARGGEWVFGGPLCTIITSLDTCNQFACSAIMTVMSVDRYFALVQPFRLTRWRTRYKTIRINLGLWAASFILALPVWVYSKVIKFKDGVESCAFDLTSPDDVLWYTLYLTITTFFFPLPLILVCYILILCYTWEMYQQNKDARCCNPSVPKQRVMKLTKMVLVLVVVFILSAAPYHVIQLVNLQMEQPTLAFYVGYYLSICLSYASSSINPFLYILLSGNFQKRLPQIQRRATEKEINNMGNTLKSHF
Assay: Aequorin bioluminescence functional assay, 293AEQ17/MCH-2R cells
Format: cell-based
Design: expressed in transfected cells; concentration or dose not given beside the values
Conditions: human MCH = 100
reported.metric: MCH-2R Activation % (%)
Form entry: value (%) — number only.

molecule	unit.symbol	reported.value
CSCC[C@@H]1NC(=O)[C@@H](NC(=O)[C@H](CCCNC(=N)N)NC(C)=O)CSSC[C@@H](C(N)=O)NC(=O)[C@@H]2CCCN2C(=O)[C@H](CCCNC(=N)N)NC(=O)[C@H](Cc2ccc(O)cc2)NC(=O)[C@H](C(C)C)NC(=O)[C@H](CCCNC(=N)N)NC(=O)[C@H](CC2CCCCC2)NC(=O)[C@H](CC(C)C)NC1=O [SEQ. ID. NO. 19]	%	74

Now let's try a different one.
Given the molecule CSCC[C@@H]1NC(=O)CCSSC[C@@H](C(N)=O)NC(=O)[C@@H]2CCCN2C(=O)[C@H](CCCNC(=N)N)NC(=O)[C@H](Cc2ccc(O)cc2)NC(=O)[C@H](C(C)C)NC(=O)[C@H](CCCNC(=N)N)NC(=O)CNC(=O)[C@H](CC(C)C)NC1=O [SEQ. ID. NO. 15] , what is its reported MCH-2R Activation %? 47
